- study-target: human FXR (NR1H4) (Homo sapiens, UniProt Q96RI1)
- protocol: Human FXR (NR1H4) Assay: Gal4 promoter driven luciferase reporter transactivation in CHO cells (Indigo Bioscience kit IB00601)
- Assay type: cell-based
- condition-set: CHO, efficacy normalized to CDCA set as 100%; read-out: Efficacy (%)
Listed here are compounds together with their documented Emax.
The reply should be a number in %, with the unit left off.

compound | reading-unit | Emax
O=C(Nc1ccc(F)c(F)c1)N1C2CCC1CC(OCc1c(-c3c(Cl)cccc3Cl)noc1C1CC1)C2 (stereo not drawn) [Example 699] | % | 232
COc1c(NC(=O)N2C3CCC2CC(OCc2c(-c4ccccc4OC(F)(F)F)noc2C2CC2)C3)cccc1C(=O)O (stereo not drawn) [Example 761] | % | 105
N#Cc1cc(F)cc(NC(=O)N2C3CCC2CC(OCc2c(-c4c(Cl)cccc4Cl)noc2C2CC2)C3)c1 (stereo not drawn) [Example 704] | % | 157

Q) Give recorded Emax. CC(C)(C)c1ccc(S(=O)(=O)NC(=O)c2ccc(NC(=O)N3C4CCC3CC(OCc3c(-c5ccccc5OC(F)(F)F)noc3C3CC3)C4)cc2)cc1 (stereo not drawn) [Example 757]
A) 257

Q) Quote Emax reported for CCOc1cc(C(=O)O)ccc1NC(=O)N1C2CCC1CC(NCc1c(-c3c(Cl)cccc3Cl)noc1C1CC1)C2 (stereo not drawn) [Example 830] please.
A) 82

Q) Specify reported Emax for the compound shown: COC(=O)c1ccc(NC(=O)N2C3CCC2CC(OCc2c(-c4c(Cl)cccc4Cl)noc2C2CC2)C3)c(C#N)c1 (stereo not drawn) [Example 802]
A) 28

Q) Return the recorded Emax value; entry: COC(=O)c1ccc(NC(=O)N2C3CCC2CC(OCc2c(-c4c(Cl)cccc4Cl)noc2C2CC2)C3)cc1-c1cnn(C)c1 (stereo not drawn) [Example 774]
A) 102

Q) Check the records and state Emax for CCOC(=O)c1ccnc(NC(=O)N2C3CCC2CC(OCc2c(-c4ccccc4OC(F)(F)F)noc2C2CC2)C3)c1 (stereo not drawn) [Example 765]
A) 272

Q) Indicate its recorded Emax; the compound in question is COC(=O)c1ccc(NC(=O)N2C3CCC2CC(OCc2c(-c4c(Cl)cccc4Cl)noc2C2CC2)C3)c(F)c1-c1ccccc1 (stereo not drawn) [Example 795]
A) 44

Q) Return reported Emax. Input compound: CCOc1cc(C(=O)O)ccc1NC(=O)N1C2CCC1CC(OCc1c(-c3ccccc3C3CC3)noc1C1CC1)C2 (stereo not drawn) [Example 811]
A) 66

Q) Assign Emax to the following record: CC(=O)N1CCC(c2cccc(NC(=O)N3C4CCC3CC(OCc3c(-c5c(Cl)cccc5Cl)noc3C3CC3)C4)c2)CC1 (stereo not drawn) [Example 714]
A) 156

Q) Write down Emax measured for item O=C(O)c1cccc(F)c1NC(=O)N1C2CCC1CC(OCc1c(-c3ccccc3OC(F)(F)F)noc1C1CC1)C2 (stereo not drawn) [Example 768]
A) 33

Q) Given the compound CCOC(=O)c1cccnc1NC(=O)N1C2CCC1CC(OCc1c(-c3ccccc3OC(F)(F)F)noc1C1CC1)C2 (stereo not drawn) [Example 767] , write its reported Emax.
A) 136

Q) Identify Emax associated with the compound COC(=O)c1ccc(NC(=O)N2C3CCC2CC(OCc2c(-c4c(Cl)cccc4Cl)noc2C2CC2)C3)c(OC(C)C)c1 (stereo not drawn) [Example 719]
A) 104

###

- study-target: human FXR (NR1H4) (Homo sapiens, UniProt Q96RI1)
- Sequence (Q96RI1 1-486): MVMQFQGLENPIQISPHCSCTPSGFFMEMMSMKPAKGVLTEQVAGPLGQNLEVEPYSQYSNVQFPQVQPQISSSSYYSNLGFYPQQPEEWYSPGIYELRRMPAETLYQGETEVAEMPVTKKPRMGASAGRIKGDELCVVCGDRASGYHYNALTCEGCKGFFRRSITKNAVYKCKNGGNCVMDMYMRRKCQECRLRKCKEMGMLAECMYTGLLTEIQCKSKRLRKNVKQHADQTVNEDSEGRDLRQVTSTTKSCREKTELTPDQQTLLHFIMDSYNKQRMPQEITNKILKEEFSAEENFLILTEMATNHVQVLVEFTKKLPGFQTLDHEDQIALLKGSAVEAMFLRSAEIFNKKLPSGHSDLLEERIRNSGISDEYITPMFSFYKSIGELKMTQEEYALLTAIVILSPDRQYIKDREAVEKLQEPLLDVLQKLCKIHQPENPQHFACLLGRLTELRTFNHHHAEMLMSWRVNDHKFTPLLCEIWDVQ
- protocol: Human FXR (NR1H4) Assay: Gal4 promoter driven luciferase reporter transactivation in CHO cells (Indigo Bioscience kit IB00601)
- Format: cell-based
- condition-set: CHO, efficacy normalized to CDCA set as 100%; read-out: Efficacy (%)
Emax by entry:
API: value field is a number in %; no unit string.

Consider the worked cases shown below.
compound | Emax [%]
Cn1cc(-c2cc(NC(=O)N3C4CCC3CC(OCc3c(-c5c(Cl)cccc5Cl)noc3C3CC3)C4)ccc2C(=O)O)cn1 (stereo not drawn) | 11
O=C(NCc1cccc(-c2ccccc2)c1)N1C2CCC1CC(OCc1c(-c3c(Cl)cccc3Cl)noc1C1CC1)C2 (stereo not drawn) | 136

Q) Report its Emax with human FXR (NR1H4) (Homo sapiens, UniProt Q96RI1) as the test system: CCOc1cc(C(=O)O)ccc1NC(=O)N1C2CCC1CC(NCc1c(-c3ccccc3OC(F)(F)F)noc1C1CC1)C2 (stereo not drawn)
A) 50

###

- study-target: human FXR (NR1H4) (Homo sapiens, UniProt Q96RI1)
- protocol: Human FXR (NR1H4) Assay: Gal4 promoter driven luciferase reporter transactivation in CHO cells (Indigo Bioscience kit IB00601)
- Type: cell-based
- condition-set: potency range, Human FXR (NR1H4) reporter assay in CHO cells; read-out: EC50
pEC50: −log10 of the molar value.
Overview of recorded pEC50 for various molecules

Answered cases to consult:
molecule | result
O=C(NCCS(=O)(=O)O)c1ccc(NC(=O)N2C3CCC2CC(OCc2c(-c4c(Cl)cccc4Cl)noc2C2CC2)C3)c(F)c1 (centres unmarked) | 6.00 to 7.00
O=C(Nc1cccc(-c2ccncc2)c1)N1C2CCC1CC(OCc1c(-c3c(Cl)cccc3Cl)noc1C1CC1)C2 (centres unmarked) | > 8.00
CCOC(=O)c1cccc(NC(=O)N2C3CCC2CC(OCc2c(-c4c(Cl)cccc4Cl)noc2C2CC2)C3)c1 (centres unmarked) | > 8.00
O=C(Nc1cccc(-c2cnn(C3CCOCC3)c2)c1)N1C2CCC1CC(OCc1c(-c3c(Cl)cccc3Cl)noc1C1CC1)C2 (centres unmarked) | > 8.00
COC(=O)c1ccc(NC(=O)N2C3CCC2CC(OCc2c(-c4c(Cl)cccc4Cl)noc2C2CC2)C3)c(OC(C)C)c1 (centres unmarked) | 6.00 to 7.00
N#Cc1cccc(NC(=O)N2C3CCC2CC(OCc2c(-c4c(Cl)cccc4Cl)noc2C2CC2)C3)c1 (centres unmarked) | > 8.00

Q) State, in one line, measured pEC50 of COc1cc(C(=O)O)ccc1NC(=O)N1C2CCC1CC(OCc1c(-c3ccccc3OC(F)(F)F)noc1C1CC1)C2 (centres unmarked)
A) > 8.00

Q) Return value of pEC50 for input COC(=O)c1ccc(NC(=O)N2C3CCC2CC(OCc2c(-c4ccccc4OC(F)(F)F)noc2C2CC2)C3)c(OC)c1 (centres unmarked) , no commentary.
A) 7.00 to 8.00

Q) Return value of pEC50 for input N#Cc1cccc(NC(=O)N2C3CCC2CC(NCc2c(-c4c(Cl)cccc4Cl)noc2C2CC2)C3)c1 (centres unmarked) , no commentary.
A) 7.00 to 8.00

Q) Supply measured pEC50 of O=C(O)c1ccc2c(c1)N(C(=O)N1C3CCC1CC(OCc1c(-c4ccccc4OC(F)(F)F)noc1C1CC1)C3)CCC2 (centres unmarked) in your reply.
A) < 6.00

Q) Determine its reported pEC50: O=C(NCc1cncc(-c2ccccc2)c1)N1C2CCC1CC(OCc1c(-c3c(Cl)cccc3Cl)noc1C1CC1)C2 (centres unmarked)
A) 7.00 to 8.00

###

- study-target: human FXR (NR1H4) (Homo sapiens, UniProt Q96RI1)
- Sequence (Q96RI1 1-486): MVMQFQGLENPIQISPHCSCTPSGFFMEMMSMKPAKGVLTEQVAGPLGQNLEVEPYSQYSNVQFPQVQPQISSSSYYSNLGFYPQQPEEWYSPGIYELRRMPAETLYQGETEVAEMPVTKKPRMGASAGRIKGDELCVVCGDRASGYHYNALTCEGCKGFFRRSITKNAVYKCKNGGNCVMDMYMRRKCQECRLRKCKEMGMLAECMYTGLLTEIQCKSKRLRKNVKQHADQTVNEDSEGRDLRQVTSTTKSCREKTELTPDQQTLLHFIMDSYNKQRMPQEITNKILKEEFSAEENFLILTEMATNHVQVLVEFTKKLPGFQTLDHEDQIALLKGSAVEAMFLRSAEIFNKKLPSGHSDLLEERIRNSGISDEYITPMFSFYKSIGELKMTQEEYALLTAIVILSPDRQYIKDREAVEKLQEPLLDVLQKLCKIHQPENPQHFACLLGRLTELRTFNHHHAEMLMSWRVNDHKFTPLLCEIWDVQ
- protocol: Human FXR (NR1H4) Assay: Gal4 promoter driven luciferase reporter transactivation in CHO cells (Indigo Bioscience kit IB00601)
- Format: cell-based
- condition-set: CHO, efficacy normalized to CDCA set as 100%; read-out: Efficacy (%)
observation-type: Emax (%)
Give your result in % as a bare value.

Q) For human FXR (NR1H4) (Homo sapiens, UniProt Q96RI1), give the measured Emax of the entry COC(=O)c1ccc(NC(=O)N2C3CCC2CC(OCc2c(-c4ccccc4OC(F)(F)F)noc2C2CC2)C3)nc1 (stereo not shown)
A) 230

Q) Provide measured Emax on human FXR (NR1H4) (Homo sapiens, UniProt Q96RI1) for CCOc1cc(C(=O)O)ccc1NC(=O)N1C2CCC1CC(OCc1c(-c3c(Cl)cccc3Cl)noc1C1CC1)C2 (stereo not shown) please.
A) 171

Q) GET Emax | system: human FXR (NR1H4) (Homo sapiens, UniProt Q96RI1) | item: CCOc1cc(C(=O)O)ccc1NC(=O)N1C2CCC1CC(OCc1c(-c3ccccc3OC(F)(F)F)noc1C1CC1)C2 (stereo not shown)
A) 112

Q) System human FXR (NR1H4) (Homo sapiens, UniProt Q96RI1). Read-out Emax. Item CC1(S(=O)(=O)NC(=O)c2cnc3ccc(NC(=O)N4C5CCC4CC(OCc4c(-c6c(Cl)cccc6Cl)noc4C4CC4)C5)cc3c2)CC1 (stereo not shown) . Report value.
A) 11
